Test: Oral pharmacokinetic study in mice, plasma LC-MS/MS
Assay type: in vivo
Conditions: mouse, 10 mg/kg, 10 mpk, female Balb C mice, read-out: AUC
Description: Female Balb C mice 4 per group after overnight fasting were dosed orally (via gavage) with compound 1 in 5% NMP in normal saline (10 ml/kg). Blood was collected by serial bleeding at 0.16 hr, 0.5 hr, 1 hr, 2 hr, 4 hr, 6 hr, 8 hr in heparinized tubes. […] Acetonitrile and plasma calibration curves were generated and percentage of drug recovery from plasma determined. Quantitative analysis was done by liquid chromatography tandem mass spectrometer (API3200 LC-MS/MS). […]
measurement.type: AUC (nM·h)
Record the value in nM·h, omitting the unit from your answer.

Data request: Please supply the value of reported AUC for the item `CCCCCCCC(=O)Oc1cc(O)cc2c1C[C@H](O)[C@H](c1ccc(O)c(O)c1)O2`
Data returned: 2800
